Every entry's value here was drawn from patent US8952159B2.

assay: Comparative test of solubility in water of different forms of rifaximin (spectrophotometric, absorbance at 450.50 nm); format: physicochemical; settings: deionized water, 25 °C, water, thermodynamic from solid, time 1 min, suspension in deionized water, constant stirring
Quantity name: solubility at 1 min

Requested field: solubility at 1 min. Item: CO[C@H]1/C=C/O[C@@]2(C)Oc3c(C)c(O)c4c(O)c(c5c(nc6cc(C)ccn65)c4c3C2=O)NC(=O)/C(C)=C\C=C\[C@H](C)[C@H](O)[C@@H](C)[C@@H](O)[C@@H](C)[C@H](OC(C)=O)[C@@H]1C [form γ, rifaximin]
5.4 µg/mL

###

Could you please report measured Solubility in water for the items listed next?
test: Comparative test of solubility in water of different forms of rifaximin (spectrophotometric, absorbance at 450.50 nm); format: physicochemical; settings: time 60 min; suspension in deionized water, constant stirring, 25° C.
Give a bare numeral; the unit µg/mL is implied.

Requested field: Solubility in water. Item: CO[C@H]1/C=C/O[C@@]2(C)Oc3c(C)c(O)c4c(O)c(c5c(nc6cc(C)ccn65)c4c3C2=O)NC(=O)/C(C)=C\C=C\[C@H](C)[C@H](O)[C@@H](C)[C@@H](O)[C@@H](C)[C@H](OC(C)=O)[C@@H]1C [example 5, rifaximin]
37

Requested field: Solubility in water. Item: CO[C@H]1/C=C/O[C@@]2(C)Oc3c(C)c(O)c4c(O)c(c5c(nc6cc(C)ccn65)c4c3C2=O)NC(=O)/C(C)=C\C=C\[C@H](C)[C@H](O)[C@@H](C)[C@@H](O)[C@@H](C)[C@H](OC(C)=O)[C@@H]1C [example 1, rifaximin]
36

Requested field: Solubility in water. Item: CO[C@H]1/C=C/O[C@@]2(C)Oc3c(C)c(O)c4c(O)c(c5c(nc6cc(C)ccn65)c4c3C2=O)NC(=O)/C(C)=C\C=C\[C@H](C)[C@H](O)[C@@H](C)[C@@H](O)[C@@H](C)[C@H](OC(C)=O)[C@@H]1C [example 13, rifaximin]
81

Requested field: Solubility in water. Item: CO[C@H]1/C=C/O[C@@]2(C)Oc3c(C)c(O)c4c(O)c(c5c(nc6cc(C)ccn65)c4c3C2=O)NC(=O)/C(C)=C\C=C\[C@H](C)[C@H](O)[C@@H](C)[C@@H](O)[C@@H](C)[C@H](OC(C)=O)[C@@H]1C [example 8, rifaximin]
82

Requested field: Solubility in water. Item: CO[C@H]1/C=C/O[C@@]2(C)Oc3c(C)c(O)c4c(O)c(c5c(nc6cc(C)ccn65)c4c3C2=O)NC(=O)/C(C)=C\C=C\[C@H](C)[C@H](O)[C@@H](C)[C@@H](O)[C@@H](C)[C@H](OC(C)=O)[C@@H]1C [form γ, rifaximin]
37

###

assay: Comparative test of solubility in water of different forms of rifaximin (spectrophotometric, absorbance at 450.50 nm); type: physicochemical; conditions: time 10 min; suspension in deionized water, constant stirring, 25° C.
Could you please report measured Solubility in water for the items listed next?
Give a bare numeral; the unit µg/mL is implied.

Requested field: Solubility in water. Item: CO[C@H]1/C=C/O[C@@]2(C)Oc3c(C)c(O)c4c(O)c(c5c(nc6cc(C)ccn65)c4c3C2=O)NC(=O)/C(C)=C\C=C\[C@H](C)[C@H](O)[C@@H](C)[C@@H](O)[C@@H](C)[C@H](OC(C)=O)[C@@H]1C [example 8, rifaximin]
51

Requested field: Solubility in water. Item: CO[C@H]1/C=C/O[C@@]2(C)Oc3c(C)c(O)c4c(O)c(c5c(nc6cc(C)ccn65)c4c3C2=O)NC(=O)/C(C)=C\C=C\[C@H](C)[C@H](O)[C@@H](C)[C@@H](O)[C@@H](C)[C@H](OC(C)=O)[C@@H]1C [example 5, rifaximin]
15

Requested field: Solubility in water. Item: CO[C@H]1/C=C/O[C@@]2(C)Oc3c(C)c(O)c4c(O)c(c5c(nc6cc(C)ccn65)c4c3C2=O)NC(=O)/C(C)=C\C=C\[C@H](C)[C@H](O)[C@@H](C)[C@@H](O)[C@@H](C)[C@H](OC(C)=O)[C@@H]1C [example 1, rifaximin]
14

Requested field: Solubility in water. Item: CO[C@H]1/C=C/O[C@@]2(C)Oc3c(C)c(O)c4c(O)c(c5c(nc6cc(C)ccn65)c4c3C2=O)NC(=O)/C(C)=C\C=C\[C@H](C)[C@H](O)[C@@H](C)[C@@H](O)[C@@H](C)[C@H](OC(C)=O)[C@@H]1C [form γ, rifaximin]
15

Requested field: Solubility in water. Item: CO[C@H]1/C=C/O[C@@]2(C)Oc3c(C)c(O)c4c(O)c(c5c(nc6cc(C)ccn65)c4c3C2=O)NC(=O)/C(C)=C\C=C\[C@H](C)[C@H](O)[C@@H](C)[C@@H](O)[C@@H](C)[C@H](OC(C)=O)[C@@H]1C [example 13, rifaximin]
55
